All figures here come from the supplement of paper PMC10567573.

B1: MMP1 (parent)
chain: MFFKDRFYMRTNPFYPEVELNFIS

Variants of: B1
Protocol text: protein stability index of a GFP-peptide fusion (GPS, HEK-293T) (PSI 1-6); higher = more stable;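 further: lentivirally expressed fusions sorted by FACS into six bins by GFP to DsRed ratio, PSI derived from sequencing read proportions per bin multiplied by bin number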
Experimental context: c terminus: a fixed tail appended
Respond with 1 (yes) for protein stability index values of 3 and above, 0 (no) for values below.

Example results:
sequence_input=MFFKDRFYMRTNPFHPEVELNFIS group_label="0 (no)"
sequence_input=MFFKDRFYMRTNPFYPEVELNFIC group_label="0 (no)"
sequence_input=MFFKDRFYMRTNPFYPEVELNFKS group_label="0 (no)"

Let us examine a further case.
Input line: Evaluate MFFKDRFYMMTNPFYPEVELNFIS : protein stability index at minimum 3?
Output line: 0 (no)
